This collection of values is drawn from paper PMC6269737.

Measurement Name: IC50 (µM)
Give just the number in µM; leave the unit off.

Prompt line: Give IC50; test system UGT1A4 (Homo sapiens, UniProt P22310); compound C=CCc1ccc(O)c(-c2ccc(O)c(CC=C)c2)c1 [honokiol]
Response line: 158

###

target: CYP2C9 (Homo sapiens); experiment: biochemical; details: IC50 (μM) of honokiol, no preincubation, Diclofenac 4-hydroxylation, 10 μM diclofenac, pooled HLM (H161)
Measurement Name: IC50 (µM)
Only the number, expressed in µM, is required.

Prompt line: For the molecule C=CCc1ccc(O)c(-c2ccc(O)c(CC=C)c2)c1 [honokiol] , give its reported IC50.
Response line: 4.1

###

target: CYP1A2 (Homo sapiens); experiment: CYP1A2-catalyzed phenacetin O-deethylation inhibition in pooled human liver microsomes (LC-MS/MS); assay type: in vitro ADME; conditions: 10–80 μM phenacetin, pooled HLM (H161)
Sequence (P05177 whole entry): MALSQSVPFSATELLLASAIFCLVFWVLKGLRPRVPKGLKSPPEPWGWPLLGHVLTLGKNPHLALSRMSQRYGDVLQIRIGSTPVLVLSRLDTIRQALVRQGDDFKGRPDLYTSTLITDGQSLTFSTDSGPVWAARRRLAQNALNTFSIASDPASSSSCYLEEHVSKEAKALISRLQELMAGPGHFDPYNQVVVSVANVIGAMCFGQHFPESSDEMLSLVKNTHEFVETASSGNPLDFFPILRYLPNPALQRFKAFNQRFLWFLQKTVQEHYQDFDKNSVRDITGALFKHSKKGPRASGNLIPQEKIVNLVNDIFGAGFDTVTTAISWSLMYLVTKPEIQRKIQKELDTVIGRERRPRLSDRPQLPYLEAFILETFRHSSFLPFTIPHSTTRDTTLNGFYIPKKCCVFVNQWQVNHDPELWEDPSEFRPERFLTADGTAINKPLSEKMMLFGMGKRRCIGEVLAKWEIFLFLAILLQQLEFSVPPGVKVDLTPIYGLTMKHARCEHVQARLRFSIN
Measurement Name: Ki (nM)
Numeric answer only, unit nM assumed.

Prompt line: Fill in reported Ki for this entry: C=CCc1ccc(O)c(-c2ccc(O)c(CC=C)c2)c1 [honokiol]
Response line: 1200

###

molecular target: CYP2C19 (Homo sapiens, UniProt P33261)
Sequence (P33261 whole entry): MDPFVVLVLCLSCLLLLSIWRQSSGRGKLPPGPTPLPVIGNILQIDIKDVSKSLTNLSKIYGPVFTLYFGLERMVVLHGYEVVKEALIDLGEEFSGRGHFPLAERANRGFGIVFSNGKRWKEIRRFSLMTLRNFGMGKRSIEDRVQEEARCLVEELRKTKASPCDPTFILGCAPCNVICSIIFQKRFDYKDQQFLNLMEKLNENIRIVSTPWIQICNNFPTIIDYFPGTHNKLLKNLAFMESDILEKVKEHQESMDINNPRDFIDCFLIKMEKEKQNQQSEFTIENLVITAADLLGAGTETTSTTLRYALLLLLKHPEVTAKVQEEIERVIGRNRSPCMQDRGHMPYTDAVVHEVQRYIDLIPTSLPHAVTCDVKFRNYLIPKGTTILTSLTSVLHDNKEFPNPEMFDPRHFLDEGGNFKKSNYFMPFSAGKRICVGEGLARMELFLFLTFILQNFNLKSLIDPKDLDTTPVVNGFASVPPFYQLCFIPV
Measurement Name: pKi
Bear in mind: pKi is minus log10 of a mol/L concentration; give just that figure.

Prompt line: Look up CYP2C19 (Homo sapiens, UniProt P33261) data: pKi of C=CCc1ccc(O)c(-c2ccc(O)c(CC=C)c2)c1 [honokiol] , then report it.
Response line: 6.24

###

Molecular target: CYP2D6 (Homo sapiens, UniProt P10635)
Sequence (P10635 whole entry): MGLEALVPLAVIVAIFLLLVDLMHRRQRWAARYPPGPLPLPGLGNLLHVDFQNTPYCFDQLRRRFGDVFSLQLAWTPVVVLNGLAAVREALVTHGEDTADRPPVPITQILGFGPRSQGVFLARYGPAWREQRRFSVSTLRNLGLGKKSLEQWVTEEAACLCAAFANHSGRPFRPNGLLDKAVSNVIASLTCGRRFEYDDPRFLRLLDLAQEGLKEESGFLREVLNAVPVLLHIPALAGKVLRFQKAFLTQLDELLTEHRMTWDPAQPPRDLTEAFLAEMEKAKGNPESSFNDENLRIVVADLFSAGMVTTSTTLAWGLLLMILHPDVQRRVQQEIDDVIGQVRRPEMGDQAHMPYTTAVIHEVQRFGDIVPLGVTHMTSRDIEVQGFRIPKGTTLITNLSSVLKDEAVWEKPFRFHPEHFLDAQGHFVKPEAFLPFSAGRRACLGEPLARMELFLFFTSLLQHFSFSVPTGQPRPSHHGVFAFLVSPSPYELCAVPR
Experiment: biochemical
Settings: IC50 (μM) of honokiol, with preincubation, Bufuralol 1'-hydroxylation; 30 min preincubation with NADPH
Experimental: The inhibitory potential (IC50 values) of honokiol on CYP activities was evaluated in pooled human liver microsomes using liquid chromatography-tandem mass spectrometry (LC-MS/MS). […] Honokiol was dissolved in acetonitrile. […] The metabolites formed from the seven CYP cocktail substrates were simultaneously determined according to our previously described LC-MS/MS method with minor modification; the concentration of 4-hydroxybupropion for CYP2B6 activity was quantified separately by LC-MS/MS. […]
Measurement Name: IC50 (µM)
Please give a number only; it is taken to be in µM.

Prompt line: State the measured IC50 (CYP2D6 (Homo sapiens, UniProt P10635)) of C=CCc1ccc(O)c(-c2ccc(O)c(CC=C)c2)c1
Response line: 38.1

###

Target: CYP1A2 (Homo sapiens)
Test: CYP1A2-catalyzed phenacetin O-deethylation inhibition in pooled human liver microsomes (LC-MS/MS)
Format: in vitro ADME
Conditions: 50 μM phenacetin (cocktail), pooled human liver microsomes (H161), read-out: IC50 (μM) of honokiol, no preincubation
Procedure: The inhibitory potential (IC50 values) of honokiol on CYP activities was evaluated in pooled human liver microsomes using liquid chromatography-tandem mass spectrometry (LC-MS/MS). […] Honokiol was dissolved in acetonitrile. […] The metabolites formed from the seven CYP cocktail substrates were simultaneously determined according to our previously described LC-MS/MS method with minor modification; the concentration of 4-hydroxybupropion for CYP2B6 activity was quantified separately by LC-MS/MS. […]
Measurement Name: IC50 (µM)
All answers are understood in µM, so give the number only.

Prompt line: For the compound C=CCc1ccc(O)c(-c2ccc(O)c(CC=C)c2)c1 , give its reported IC50.
Response line: 2.1

###

Biological target: CYP2C19 (Homo sapiens)
Assay: biochemical
Settings: IC50 (μM) of honokiol, no preincubation, S-Mephenytoin 4'-hydroxylation, 100 μM [S]-mephenytoin, pooled HLM (H161)
Procedure: The inhibitory potential (IC50 values) of honokiol on CYP activities was evaluated in pooled human liver microsomes using liquid chromatography-tandem mass spectrometry (LC-MS/MS). […] Honokiol was dissolved in acetonitrile. […] The metabolites formed from the seven CYP cocktail substrates were simultaneously determined according to our previously described LC-MS/MS method with minor modification; the concentration of 4-hydroxybupropion for CYP2B6 activity was quantified separately by LC-MS/MS. […]
Measurement Name: IC50 (µM)
API: value field is a number in µM; no unit string.

Prompt line: Send back CYP2C19 (Homo sapiens) IC50 of C=CCc1ccc(O)c(-c2ccc(O)c(CC=C)c2)c1 [honokiol] only.
Response line: 2.2

###

target: UGT1A9 (Homo sapiens, UniProt O60656); assay: UGT1A9-catalyzed propofol glucuronidation inhibition in pooled human liver microsomes; type: in vitro ADME; settings: Propofol glucuronidation, 5–40 μM propofol, pooled HLM (H161)
Measurement Name: Ki (nM)
Please reply with the bare figure in nM and do not write the unit itself.

Prompt line: Param request: Ki | system UGT1A9 (Homo sapiens, UniProt O60656) | item C=CCc1ccc(O)c(-c2ccc(O)c(CC=C)c2)c1 [honokiol]
Response line: 300

###

target: CYP3A4 (Homo sapiens, UniProt P08684); test: biochemical; conditions: IC50 (μM) of honokiol, with preincubation, Midazolam 1'-hydroxylation; 30 min preincubation with NADPH
Sequence (P08684 2-503): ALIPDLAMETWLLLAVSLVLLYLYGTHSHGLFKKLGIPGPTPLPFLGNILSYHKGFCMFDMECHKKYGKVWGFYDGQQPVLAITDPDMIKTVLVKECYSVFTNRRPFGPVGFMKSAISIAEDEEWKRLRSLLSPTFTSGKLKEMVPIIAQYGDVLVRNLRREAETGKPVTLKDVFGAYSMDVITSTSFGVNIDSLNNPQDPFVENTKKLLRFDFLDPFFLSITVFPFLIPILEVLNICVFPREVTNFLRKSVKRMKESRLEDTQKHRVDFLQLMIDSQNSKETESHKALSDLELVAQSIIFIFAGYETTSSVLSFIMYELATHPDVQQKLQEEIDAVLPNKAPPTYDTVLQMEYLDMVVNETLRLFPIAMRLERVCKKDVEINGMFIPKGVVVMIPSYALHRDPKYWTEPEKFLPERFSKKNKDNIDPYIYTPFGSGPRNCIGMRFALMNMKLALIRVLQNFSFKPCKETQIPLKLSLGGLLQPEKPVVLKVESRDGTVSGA
Measurement Name: IC50 (µM)
Response body: numeric value in µM, unit text excluded.

Prompt line: Quote CYP3A4 (Homo sapiens, UniProt P08684) IC50 for entry C=CCc1ccc(O)c(-c2ccc(O)c(CC=C)c2)c1 [honokiol] .
Response line: 45.8

###

biological target: CYP2C8 (Homo sapiens); test: biochemical; conditions: IC50 (μM) of honokiol, with preincubation, Amodiaquine N-deethylation; 30 min preincubation with NADPH
Sequence (P10632 whole entry): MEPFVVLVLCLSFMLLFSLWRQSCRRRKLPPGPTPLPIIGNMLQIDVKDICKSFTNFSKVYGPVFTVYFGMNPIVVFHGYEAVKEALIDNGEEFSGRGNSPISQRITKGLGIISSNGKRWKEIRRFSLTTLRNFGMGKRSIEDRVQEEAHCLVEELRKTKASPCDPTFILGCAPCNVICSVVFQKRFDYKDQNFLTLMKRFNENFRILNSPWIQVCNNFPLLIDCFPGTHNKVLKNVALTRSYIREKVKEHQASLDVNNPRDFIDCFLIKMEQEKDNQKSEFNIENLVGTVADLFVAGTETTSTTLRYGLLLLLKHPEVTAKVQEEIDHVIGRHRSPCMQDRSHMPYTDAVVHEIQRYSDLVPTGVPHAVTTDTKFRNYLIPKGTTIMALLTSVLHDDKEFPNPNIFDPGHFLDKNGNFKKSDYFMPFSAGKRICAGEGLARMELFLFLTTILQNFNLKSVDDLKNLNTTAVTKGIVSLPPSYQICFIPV
Measurement Name: IC50 (µM)
Give the value in µM but do not write µM after it.

Prompt line: For the compound C=CCc1ccc(O)c(-c2ccc(O)c(CC=C)c2)c1 [honokiol] , report IC50.
Response line: 15.5

###

molecular target: UniProt P33261; assay: biochemical; details: IC50 (μM) of honokiol, with preincubation, S-Mephenytoin 4'-hydroxylation; 30 min preincubation with NADPH
Measurement Name: IC50
Hey, just the number and the unit after it is fine.

Prompt line: Supply IC50 value. Item: C=CCc1ccc(O)c(-c2ccc(O)c(CC=C)c2)c1 [honokiol]
Response line: 2.9 µM

###

molecular target: CYP1A2 (Homo sapiens); experiment: CYP1A2-catalyzed phenacetin O-deethylation inhibition in pooled human liver microsomes (LC-MS/MS); type: in vitro ADME; settings: 30 min preincubation in the presence of NADPH, pooled HLM (H161), read-out: IC50 (μM) of honokiol, with preincubation
Measurement Name: IC50 (µM)
Number only, in µM; omit the unit.

Prompt line: Tell me IC50 reported for C=CCc1ccc(O)c(-c2ccc(O)c(CC=C)c2)c1
Response line: 4.7

###

Molecular target: CYP2B6 (Homo sapiens, UniProt P20813)
Sequence (P20813 whole entry): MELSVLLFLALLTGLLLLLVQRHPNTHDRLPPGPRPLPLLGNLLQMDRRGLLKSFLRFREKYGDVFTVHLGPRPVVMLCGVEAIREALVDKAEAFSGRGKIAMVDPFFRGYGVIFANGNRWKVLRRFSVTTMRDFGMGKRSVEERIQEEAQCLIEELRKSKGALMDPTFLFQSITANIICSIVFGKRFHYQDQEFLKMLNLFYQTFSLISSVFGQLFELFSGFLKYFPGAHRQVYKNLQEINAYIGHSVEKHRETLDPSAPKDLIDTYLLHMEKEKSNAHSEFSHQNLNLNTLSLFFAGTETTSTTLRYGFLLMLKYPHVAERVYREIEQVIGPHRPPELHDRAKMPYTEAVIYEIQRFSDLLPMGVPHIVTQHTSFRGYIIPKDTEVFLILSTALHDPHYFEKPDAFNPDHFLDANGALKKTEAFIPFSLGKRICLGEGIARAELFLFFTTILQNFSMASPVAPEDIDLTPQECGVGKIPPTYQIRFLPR
Experiment: biochemical
Conditions: IC50 (μM) of honokiol, no preincubation, Bupropion hydroxylation, 50 μM bupropion, pooled HLM (H161)
Procedure: The inhibitory potential (IC50 values) of honokiol on CYP activities was evaluated in pooled human liver microsomes using liquid chromatography-tandem mass spectrometry (LC-MS/MS). […] Honokiol was dissolved in acetonitrile. […] The metabolites formed from the seven CYP cocktail substrates were simultaneously determined according to our previously described LC-MS/MS method with minor modification; the concentration of 4-hydroxybupropion for CYP2B6 activity was quantified separately by LC-MS/MS. […]
Measurement Name: IC50 (µM)
Answer in µM, number only, no unit symbol.

Prompt line: Annotate the compound C=CCc1ccc(O)c(-c2ccc(O)c(CC=C)c2)c1 with its measured IC50.
Response line: 13.8

###

molecular target: CYP2C8 (Homo sapiens); assay: biochemical; conditions: IC50 (μM) of honokiol, no preincubation, Amodiaquine N-deethylation, 2.5 μM amodiaquine, pooled HLM (H161)
Measurement Name: IC50
Report field: quantity (unit follows the number).

Prompt line: Write down measured IC50 (CYP2C8 (Homo sapiens)) for this compound. C=CCc1ccc(O)c(-c2ccc(O)c(CC=C)c2)c1 [honokiol]
Response line: 8.9 µM

###

target: UGT1A9 (Homo sapiens, UniProt O60656)
Measurement Name: pIC50
Scale: pIC50 equals -log10([C]), with [C] in mol/L.

Prompt line: Provide one value: measured pIC50 of C=CCc1ccc(O)c(-c2ccc(O)c(CC=C)c2)c1 [honokiol]
Response line: 6.01

###

target: CYP2C9 (Homo sapiens, UniProt P11712); test: biochemical; conditions: IC50 (μM) of honokiol, with preincubation, Diclofenac 4-hydroxylation; 30 min preincubation with NADPH
Sequence (P11712 whole entry): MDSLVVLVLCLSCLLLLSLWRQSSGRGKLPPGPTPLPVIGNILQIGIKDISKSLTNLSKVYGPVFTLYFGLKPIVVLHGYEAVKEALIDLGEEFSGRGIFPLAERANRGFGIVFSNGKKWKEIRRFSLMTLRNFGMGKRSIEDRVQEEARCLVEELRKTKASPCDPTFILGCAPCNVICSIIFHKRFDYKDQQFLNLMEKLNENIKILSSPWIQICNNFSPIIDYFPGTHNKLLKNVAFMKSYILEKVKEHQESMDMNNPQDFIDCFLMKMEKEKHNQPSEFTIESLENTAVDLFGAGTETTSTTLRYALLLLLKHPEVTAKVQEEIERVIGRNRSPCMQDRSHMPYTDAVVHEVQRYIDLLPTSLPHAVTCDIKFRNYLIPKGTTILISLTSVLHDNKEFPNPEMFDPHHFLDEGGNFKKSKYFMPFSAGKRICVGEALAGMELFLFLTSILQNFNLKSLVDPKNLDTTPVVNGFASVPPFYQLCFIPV
Measurement Name: IC50 (µM)
Provide the reading as a plain figure in µM.

Prompt line: Under CYP2C9 (Homo sapiens, UniProt P11712): report IC50 of C=CCc1ccc(O)c(-c2ccc(O)c(CC=C)c2)c1 [honokiol] .
Response line: 3.9

###

Molecular target: UGT1A9 (Homo sapiens)
Sequence (O60656 26-530): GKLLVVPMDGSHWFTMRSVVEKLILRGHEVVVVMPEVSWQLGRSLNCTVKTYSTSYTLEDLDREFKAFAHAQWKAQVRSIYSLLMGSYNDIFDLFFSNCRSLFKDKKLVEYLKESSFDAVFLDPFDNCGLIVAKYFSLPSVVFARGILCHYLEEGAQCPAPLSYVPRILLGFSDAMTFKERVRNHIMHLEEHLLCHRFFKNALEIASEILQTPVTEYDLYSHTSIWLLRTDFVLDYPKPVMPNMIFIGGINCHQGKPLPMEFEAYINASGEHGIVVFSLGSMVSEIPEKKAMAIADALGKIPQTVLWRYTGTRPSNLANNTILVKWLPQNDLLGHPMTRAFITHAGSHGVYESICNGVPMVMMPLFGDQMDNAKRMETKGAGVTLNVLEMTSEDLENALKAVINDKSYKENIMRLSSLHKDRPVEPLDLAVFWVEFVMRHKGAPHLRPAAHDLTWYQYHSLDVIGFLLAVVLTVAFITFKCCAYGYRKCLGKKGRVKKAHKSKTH
Experiment: UGT1A9-catalyzed propofol glucuronidation inhibition in pooled human liver microsomes
Format: in vitro ADME
Settings: human, pooled human liver microsomes, pH 7.4, probe propofol (10 μM); propofol glucuronidation, 10 μM propofol, pooled HLM (H161)
Measurement Name: IC50 at 30 min (nM)
Write it as a number; the unit nM goes unstated.

Prompt line: Please report the measured IC50 at 30 min for C=CCc1ccc(O)c(-c2ccc(O)c(CC=C)c2)c1
Response line: 960
